Some compounds, each annotated with its measured melting point.

[
  {
    "Compound string": "O=C1C(c2ccccc2)=C(c2ccccc2)C(=O)N1CCc1ccc(F)cc1",
    "Measured property": "melting point",
    "Measured": "153 to 154 °C"
  },
  {
    "Compound string": "O=C(O)c1cc(N2C(=O)C(c3ccccc3)=C(c3ccccc3)C2=O)ccc1O",
    "Measured property": "melting point",
    "Measured": "249 to 250 °C"
  }
]

Recorded melting point (compound `O=C1C(c2ccccc2)=C(c2ccccc2)C(=O)N1c1cccc(Cl)c1` ): 144 to 145 °C

---

Measured property: melting point

Look over these answered cases.
[
  {
    "Compound": "CC(C)c1cccc(C(C)C)c1N1C(=O)C(c2ccccc2)=C(c2ccccc2)C1=O [Compound 4a]",
    "melting point": "233 to 234 °C"
  },
  {
    "Compound": "O=C1C(c2ccccc2)=C(c2ccccc2)C(=O)N1c1ccccc1Cl [Compound 4c]",
    "melting point": "213 to 214 °C"
  },
  {
    "Compound": "O=C1C(c2ccccc2)=C(c2ccccc2)C(=O)N1C1CCCCC1 [Compound 4g]",
    "melting point": "159 to 160 °C"
  },
  {
    "Compound": "O=C1C(c2ccccc2)=C(c2ccccc2)C(=O)N1CCc1ccccc1F [Compound 4r]",
    "melting point": "111 to 112 °C"
  },
  {
    "Compound": "O=C1C(c2ccccc2)=C(c2ccccc2)C(=O)N1c1cccc(F)c1 [Compound 4k]",
    "melting point": "157 to 158 °C"
  },
  {
    "Compound": "O=C1C(c2ccccc2)=C(c2ccccc2)C(=O)N1CCc1cccc(F)c1 [Compound 4s]",
    "melting point": "129 to 130 °C"
  }
]

Recorded melting point (compound O=C1C(c2ccccc2)=C(c2ccccc2)C(=O)N1Cc1ccccc1F [Compound 4n] ): 113 to 114 °C

Recorded melting point (compound O=C1C(c2ccccc2)=C(c2ccccc2)C(=O)N1Cc1cccc(F)c1 [Compound 4o] ): 107 to 108 °C

Recorded melting point (compound O=C1C(c2ccccc2)=C(c2ccccc2)C(=O)N1c1ccccc1C(F)(F)F [Compound 4f] ): 152 to 153 °C
